Target: SIV integrase (Simian immunodeficiency virus) (UniProt P05897)
Sequence: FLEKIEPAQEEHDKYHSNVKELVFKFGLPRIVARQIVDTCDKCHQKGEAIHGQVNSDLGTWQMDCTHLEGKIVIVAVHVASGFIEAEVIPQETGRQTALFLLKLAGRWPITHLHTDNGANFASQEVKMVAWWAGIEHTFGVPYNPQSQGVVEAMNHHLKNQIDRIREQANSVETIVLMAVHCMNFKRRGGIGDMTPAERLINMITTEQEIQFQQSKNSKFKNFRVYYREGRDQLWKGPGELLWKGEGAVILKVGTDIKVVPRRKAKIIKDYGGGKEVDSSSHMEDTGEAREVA
Assay: inhibition
Details: PS at first and last internucleoside linkages, 3'-OH; 3'-processing
pIC50: −log10 of the molar value.
ATTRIBUTE_MEASURED: pIC50

> print(dat)
                        biopolymer.sequence                                    target  observed.result
1  GTGGTGGGTGGGTGGGT [T30177 (AR177, Zintevir)]  SIV integrase (Simian immunodeficiency virus) (UniProt P05897)             6.38
